Test system: ATP;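 note: ATP exposure 15 min at 22 °C before imaging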
Experiment: switch fluorescence ratio, 500 uM ATP over buffer (Cy3 cluster intensity, sum of 5 cycles each) (fold (ratio)); higher = stronger signal-on switching upon ATP binding; sequences stand for … in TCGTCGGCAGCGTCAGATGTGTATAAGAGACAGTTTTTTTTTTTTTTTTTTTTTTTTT…TC
Settings: aptamer strand: ATP DNA aptamer (quencher-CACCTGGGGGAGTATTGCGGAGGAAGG + anchor), 100 nM annealed; ATP concentration: 500 uM
Attribute: switch fluorescence ratio
# output: bare number, no unit

Known switch fluorescence ratio results, listed for orientation:
1) GTGAGTCTAA :: 0.993
2) AGTTTATACT :: 1.03
3) GACGCTAAGG :: 1.09
4) TTGTAGTTAC :: 1.03
5) TTTTGGTTTT :: 1
6) TGTGGTGTTT :: 0.984
7) GGGAACTTGG :: 0.986
8) TAGTTTGGGT :: 0.974

switch fluorescence ratio lookup needed for TGGAATGGGT , thanks.
0.987

switch fluorescence ratio lookup needed for TTCGGGTTTC , thanks.
1.04

switch fluorescence ratio lookup needed for TTTGATGTGC , thanks.
1.07

switch fluorescence ratio lookup needed for TTTGGGGTAT , thanks.
0.995

switch fluorescence ratio lookup needed for TATACTTGCC , thanks.
1.04

switch fluorescence ratio lookup needed for TGACGAGGTG , thanks.
0.982

switch fluorescence ratio lookup needed for TCGCTGAAGC , thanks.
1.02

switch fluorescence ratio lookup needed for GATGACGTCC , thanks.
1.04

---

Tested on: ATP;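 note: ATP exposure 15 min at 22 °C before imaging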
Test: switch fluorescence ratio, 500 uM ATP over buffer (Cy3 cluster intensity, sum of 5 cycles each) (fold (ratio)); higher = stronger signal-on switching upon ATP binding; sequences stand for … in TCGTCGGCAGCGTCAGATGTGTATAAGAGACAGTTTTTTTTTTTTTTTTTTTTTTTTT…TC
Conditions: aptamer strand: ATP DNA aptamer (quencher-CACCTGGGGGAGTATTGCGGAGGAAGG + anchor), 100 nM annealed; ATP concentration: 500 uM
Attribute: switch fluorescence ratio
# output: bare number, no unit

Known switch fluorescence ratio results, listed for orientation:
1) TATGTGGGTG :: 1.01
2) GTGGGGGCGG :: 1.01

Would you kindly look at the next entry?
switch fluorescence ratio lookup needed for ATTGGTGATT , thanks.
0.974

---

Test system: ATP;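 note: ATP exposure 15 min at 22 °C before imaging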
Experiment: switch fluorescence ratio, 500 uM ATP over buffer (Cy3 cluster intensity, sum of 5 cycles each) (fold (ratio)); higher = stronger signal-on switching upon ATP binding; sequences stand for … in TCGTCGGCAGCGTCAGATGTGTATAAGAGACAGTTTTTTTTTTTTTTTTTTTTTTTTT…TC
Conditions: aptamer strand: ATP DNA aptamer (quencher-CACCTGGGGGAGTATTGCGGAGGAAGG + anchor), 100 nM annealed; ATP concentration: 500 uM
measuredEndpoint: switch fluorescence ratio
# output: bare number, no unit

Known switch fluorescence ratio results, listed for orientation:
1) GTCGTGGTTT :: 0.982
2) GGAAGCTTCC :: 1.13
3) GGGCACTGGT :: 1.04
4) TGCTTTCGTC :: 0.945
5) GGGAATCGTG :: 0.983

switch fluorescence ratio lookup needed for GTGGGGCATA , thanks.
0.982

---

Tested on: ATP;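 note: ATP exposure 15 min at 22 °C before imaging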
Test: switch fluorescence ratio, 500 uM ATP over buffer (Cy3 cluster intensity, sum of 5 cycles each) (fold (ratio)); higher = stronger signal-on switching upon ATP binding; sequences stand for … in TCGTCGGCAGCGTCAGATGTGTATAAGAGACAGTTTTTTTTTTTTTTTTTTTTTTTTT…TC
Settings: aptamer strand: ATP DNA aptamer (quencher-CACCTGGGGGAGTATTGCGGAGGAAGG + anchor), 100 nM annealed; ATP concentration: 500 uM
measuredEndpoint: switch fluorescence ratio
# output: bare number, no unit

1. TCGTTAGGTG :: 1.03

switch fluorescence ratio lookup needed for GGAGGGGGAG , thanks.
0.982

switch fluorescence ratio lookup needed for GGCTATTTTG , thanks.
0.999
